# test summary: chemical genetic growth profiling, strain panel (AID 1159580);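 note: tested at 20 µM; growth read once vehicle control cultures reached saturation at 30 °C; 1 = growth at the plate median or of vehicle wells; lower values mean less growth of the strain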
# condition label: S. cerevisiae deletion strains, growth OD, locus YLR268W, strain sec22, stronger effect = lower value
The whole screen tested about 5,500 compounds, of which about 2,000 (36%) were called active. Inconclusive results (about 18%) are left out. The list shows a part of the results.
Catalogue of molecules with associated normalized growth
Just the number.

CCc1ccc2c(O)c3c(cc2c1C(=O)OC)C(=O)c1c(O)ccc(O)c1C3=O | 0.98
COc1cccc2c1CCC1=CC(=O)CC[C@@]12C | 0.973
C[N+]1(C)C[C@H](O)[C@H](C(=O)[O-])C1 | 0.991
CC1=C2C(O)C(=O)OC3CC4C(C)(C)C(=O)C=C[C@]4(C)C(CC1)[C@]23C (some centres undefined) | 1.02
COc1ccc(-c2cc(=O)c3c(O)cc(O)cc3o2)cc1 | 0.985

Query string: Requested field: normalized growth. Item: CCCCCC(O)C1C(=O)OC(C)C(O)/C=C/C=C/C=C/C=C/C=C(\C)C(O)CC(O)CC(O)CC(O)CC(O)CC(O)CC1O (centres undefined)
Result string: 1.02

Query string: Proceed to CC(=O)Oc1ccccc1C(=O)Oc1ccccc1C(=O)O
Result string: 1

meta.source: PubChem BioAssay AID1159580
